Tested on: Hela cell line
assay.text: Cytotoxicity MTS assay, Hela cell line;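 note: blank control wells received 0.025% DMSO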
Type: cell-based
test.settings: Hela cell line, MTS, 25μM, third assay
Assign OD490 value, Well 3 to each entry below.

Task: # input compound: CCOC(=O)c1[nH]c(C2NC(=O)NC(C)=C2C(=O)Nc2ccccc2C)c(C(=O)OC)c1C (stereo not drawn) ; wanted: its OD490 value, Well 3
Output: 2.5988

Task: # input compound: CCOC(=O)c1[nH]c(C2NC(=O)NC(C)=C2C(=O)Nc2ccc(Cl)cc2)c(C(=O)OCC)c1C (stereo not drawn) ; wanted: its OD490 value, Well 3
Output: 2.7102

Task: # input compound: CCOC(=O)c1c(C2NC(=O)NC(C)=C2C(=O)Nc2ccccc2)[nH]c(C(=O)OC)c1C (stereo not drawn) ; wanted: its OD490 value, Well 3
Output: 2.3365
